# System: Rattus norvegicus
# Protocol details: Effect on 24-hcumulative iron excretion in the urine of non-iron-overloaded bileduct-cannulated rats at a concentration of 150 umol/kg after subcutaneous administration
# Assay type: functional
Endpoint name: Iron excretion (mg/kg)
Write the answer as a number in mg/kg, unit excluded.

INSERT INTO results (compound, measured_number) VALUES
  ('CC(=O)N(O)CCCCCCCC(=O)N(O)CCCCCCCC(=O)N(O)CCCCCN.Cl', 0),
  ('CC(=O)N(O)CCCCC(=O)N(O)CCCCC(=O)N(O)CCCCCN.Cl', 0.021),
  ('CC(=O)N(O)CCCCCNC(=O)CCC(=O)N(O)CCCCCNC(=O)CCC(=O)N(O)CCCCCN [DEFEROXAMINE]', 0.059);

Lab note: next compound to report on.
For the compound CCCCCCCCCC(=O)N(O)CCCCC(=O)N(O)CCCCC(=O)N(O)CCCCCN.Cl , what Iron excretion is on record?
0.017
